The origin of these recorded values is ChEMBL document CHEMBL1961873.

Below is a list of entries, each paired with its recorded inhibition value.
system.under.test: Testis-specific serine/threonine-protein kinase 2 (Homo sapiens);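 further: values are mean inhibition of TSSK2 activity from the GSK PKIS profiling panel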
condition.parameters: at 0.1 µM

smi: COc1cc2ncn(-c3cc(OCCc4ccccc4)c(C(N)=O)s3)c2cc1OC
inhibition, %: -0.18

smi: COc1cc(C)c(N(C)C(=O)CN(C)C)cc1Nc1nc(Nc2cccc(F)c2C(N)=O)c2cc[nH]c2n1
inhibition, %: 1.25

smi: C[C@@H](Oc1cc(-n2cnc3ccc(OCC4CCN(C)CC4)cc32)sc1C(N)=O)c1ccccc1Cl
inhibition, %: 3.55

smi: COc1ccc2cc(-c3c(-c4ccncc4)nc(-c4ccc(S(C)(=O)=O)cc4C)n3C)ccc2c1
inhibition, %: 2.43

---

system.under.test: 5'-AMP-activated protein kinase catalytic subunit alpha-2 (Homo sapiens) (UniProt P54646)
Sequence (P54646 whole entry, looked up): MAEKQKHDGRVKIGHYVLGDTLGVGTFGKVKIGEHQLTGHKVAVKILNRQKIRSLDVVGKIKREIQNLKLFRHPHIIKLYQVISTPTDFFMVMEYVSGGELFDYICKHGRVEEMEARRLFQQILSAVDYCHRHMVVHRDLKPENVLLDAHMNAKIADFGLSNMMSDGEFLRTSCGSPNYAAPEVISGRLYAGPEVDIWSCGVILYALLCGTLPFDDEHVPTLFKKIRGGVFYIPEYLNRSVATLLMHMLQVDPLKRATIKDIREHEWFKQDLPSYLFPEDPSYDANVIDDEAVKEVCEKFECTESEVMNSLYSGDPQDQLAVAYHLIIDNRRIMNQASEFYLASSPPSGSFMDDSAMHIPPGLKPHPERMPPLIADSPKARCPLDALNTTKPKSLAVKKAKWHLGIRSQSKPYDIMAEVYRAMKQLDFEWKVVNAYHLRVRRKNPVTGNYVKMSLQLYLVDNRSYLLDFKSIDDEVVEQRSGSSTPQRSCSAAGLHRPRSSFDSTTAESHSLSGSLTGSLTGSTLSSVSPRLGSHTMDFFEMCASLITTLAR
condition.parameters: at 1 µM
Description: GSK_PKIS: AMPKA2 (A2B1G1) mean inhibition at 1 uM [Nanosyn]
Outcome label depends on inhibition relative to 10%: at/above gives TRUE, below gives FALSE.

smi: C[C@@H](Oc1cc(-n2cnc3ccc(OCC4CCN(C)CC4)cc32)sc1C(N)=O)c1ccccc1Cl
group: TRUE
--
smi: O=C(Nc1n[nH]c2nc(-c3ccc(O)cc3)c(Br)cc12)C1CC1
group: TRUE
--
smi: O=C1NC(=O)C(c2cccc(Cl)c2)=C1Nc1ccc(Cl)c(C(=O)O)c1
group: FALSE
--
smi: CS(=O)(=O)CCNCc1cc(-c2cc3c(Nc4ccc(OCc5cccc(F)c5)c(Cl)c4)ncnc3s2)cs1
group: FALSE
--
smi: CN(C)CCCNc1nccc(-c2c(-c3ccc(F)cc3)nn3cc(C(F)(F)F)ccc23)n1
group: FALSE

---

system.under.test: Aurora kinase B (Homo sapiens)
condition.parameters: at 0.1 µM

compound: c1ccc(-c2n[nH]cc2-c2ccnc(-c3ccc(OCCN4CCOCC4)cc3)c2)nc1
system.under.test: Aurora kinase B (Homo sapiens)
inhibition: 7.03%
--
compound: COc1cc2ncn(-c3cc(OCc4cccs4)c(C(N)=O)s3)c2cc1OC
system.under.test: Aurora kinase B (Homo sapiens)
inhibition: 2.98%
--
compound: CS(=O)(=O)CCNCc1cc(-c2cc3c(Nc4ccc(OCc5cccc(F)c5)c(Cl)c4)ncnc3s2)cs1
system.under.test: Aurora kinase B (Homo sapiens)
inhibition: 5.13%
--
compound: CN1CCN(CCCNc2nc3ccc(Oc4ccc(NC(=O)Nc5cc(C(F)(F)F)ccc5F)cc4)cc3[nH]2)CC1
system.under.test: Aurora kinase B (Homo sapiens)
inhibition: -0.75%
--
compound: COc1cc(Nc2ncc3c(C)nc(-c4cccc(Oc5ccccc5)c4)n3n2)cc(OC)c1OC
system.under.test: Aurora kinase B (Homo sapiens)
inhibition: 2%
--
compound: COc1ccc2cc(-c3c(-c4ccncc4)nc(-c4ccc(S(C)(=O)=O)cc4C)n3C)ccc2c1
system.under.test: Aurora kinase B (Homo sapiens)
inhibition: 4.05%
--
compound: FC(F)(F)c1cccc(Nc2nccc(-c3cnn4nc(-c5ccccc5)ccc34)n2)c1
system.under.test: Aurora kinase B (Homo sapiens)
inhibition: 2.71%
--
compound: COc1cccc(-n2cnc3c(N/N=C/c4ccncc4)ncnc32)c1
system.under.test: Aurora kinase B (Homo sapiens)
inhibition: 0.64%
--
compound: O=C1Nc2ccccc2/C1=C/Nc1ccc(-n2cncn2)cc1
system.under.test: Aurora kinase B (Homo sapiens)
inhibition: 6.72%
--
compound: COc1cc(Nc2ncc(-c3ccccc3)o2)cc(OC)c1OC
system.under.test: Aurora kinase B (Homo sapiens)
inhibition: 10.1%
--
compound: CCc1cccc(CC)c1/C=C/c1cncc(C(=O)NC)c1
system.under.test: Aurora kinase B (Homo sapiens)
inhibition: -0.55%
--
compound: O=C(Nc1ccc(Oc2ccc3[nH]c(NC(=O)c4ccccc4)nc3c2)cc1)Nc1cc(C(F)(F)F)ccc1F
system.under.test: Aurora kinase B (Homo sapiens)
inhibition: 0.59%
--
compound: COc1ccc(C2=C(N3CCc4ccccc43)C(=O)NC2=O)cc1
system.under.test: Aurora kinase B (Homo sapiens)
inhibition: 0.57%
--
compound: CS(=O)(=O)CCNCc1ccc(-c2ccc3ncnc(Nc4ccc(OCc5ccccc5)c(Br)c4)c3c2)o1
system.under.test: Aurora kinase B (Homo sapiens)
inhibition: -1.52%
--
compound: NC(=O)c1ccc(Oc2nccc(-c3c(-c4ccc(F)cc4)ncn3C3CCNCC3)n2)cc1
system.under.test: Aurora kinase B (Homo sapiens)
inhibition: 2.63%
--
compound: Fc1ccc(-c2ncn(C3CCNCC3)c2-c2ccnc(Oc3ccc(F)c(F)c3)n2)cc1
system.under.test: Aurora kinase B (Homo sapiens)
inhibition: -1.34%
--
compound: Nc1nccc(-c2c(-c3ccc(F)cc3)ncn2C2CCC(O)CC2)n1 (stereo not given)
system.under.test: Aurora kinase B (Homo sapiens)
inhibition: -3.41%
--
compound: CCN(CC)Cc1ccc(Nc2nccc(-c3cnn4ncccc34)n2)cc1
system.under.test: Aurora kinase B (Homo sapiens)
inhibition: 27.5%
--
compound: Cc1ccc(NC(=O)c2ccoc2)cc1-c1ccc(C(=O)NCC2CC2)cc1
system.under.test: Aurora kinase B (Homo sapiens)
inhibition: 1.19%
--
compound: COc1cc2ncn(-c3cc(OCc4ccccc4C(F)(F)F)c(C(C)=O)s3)c2cc1OC
system.under.test: Aurora kinase B (Homo sapiens);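 further: reported values are averaged percent inhibition of Aurora B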
inhibition: 7.82%
